- Test system: Inhibin beta A chain (activin A)
- assay_method_text: INHBA (activin A) binders on microarrays, primary screen, biochemical, small-molecule microarray, 635 nm fluorescence scan (AID 1107);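 note: mouse activin A protein probed at 4.33 µg/mL on printed slides; score merges bound-protein fluorescence near 667 nm with spot signal-to-noise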
- condition_notes: small-molecule microarray binding, higher = more signal
endpoint: composite z-score

item_smiles	obs_value
CCCC=C(CCC)[C@@H](NC(=O)c1ccc(C(F)(F)F)cc1)c1ccccc1	0.0953
CC(C)CN1C(=O)[C@@]2(Cc3ccccc31)c1ccccc1C(=O)N(C1CCCCC1)[C@H]2c1ccc(CO)cc1	0.977
CO[C@H]1COC(=O)[C@H](Cc2ccccc2)NC(=O)CC=C[C@@H](C)[C@H](OC)COC(=O)CC=C[C@@H]1C	-0.405
CCCNC(=O)[C@@]1(Sc2ccc(C)cc2)CC(=O)N(Cc2ccccc2Cl)[C@@H]1c1ccc(CO)cc1	1.42
NC(=O)NCC#Cc1ccc2c(c1)[C@]1(C(=O)N2)[C@H](C(N)=O)[C@H]2C(=O)O[C@H](c3ccccc3)[C@H](c3ccccc3)N2[C@@H]1c1ccccc1OCCO	1.02
C=C(COC)/C(=C/C[C@@H](OC(C)=O)c1cccc(OCCO)c1)c1cc(C(=O)OC)ccc1OC	0.971

* * *

- assay_method_text: small-molecule microarray binders of probe aDKK1, primary screen, biochemical, biotinylated probe, 635/667 nm fluorescence (AID 1099);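 note: score merges 667nm spot fluorescence with signal to noise across triplicate slides; reference of the scale not given here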
- condition_notes: higher = more signal
Listed here are compounds together with their documented composite z-score.

compound	composite z-score
CC[C@H]1C2=C3C(CC[C@H]4C(OC)OC[C@](C)([C@@H]34)N(C(=O)OC(C)(C)C)C2)C(CO)C1CO (stereo partly drawn)	1.54
O=C1c2ccccc2[C@](Cc2ccccc2I)(C(=O)NCC(F)(F)F)[C@H](c2ccc(CO)cc2)N1Cc1ccccc1C(F)(F)F	-0.582
CC(C)[C@H]1NC(=O)[C@@]23C(=O)N[C@@H](Cc4ccccc4)C2[C@H](C)[C@@]2(C)O[C@H]2C3/C=C/C/C=C\CNC(=O)[C@H](C)NC1=O (stereo partly drawn)	-0.386
C=CC[C@]1(C(=O)OC)N=C(c2ccc(OCCCO)cc2)O[C@H]1c1ccccc1CN=[N+]=[N-]	1.21
O=C1NC(=O)C2C1C=CC(C(O)C=Cc1ccc([N+](=O)[O-])cc1)N2Nc1ccccn1 (stereo not drawn)	0.141
CC/C=C/C(=O)N(C[C@@H]1CCCO1)[C@@H]1CC(C(=O)NCCO)=C[C@H](Oc2c(I)cc(CO)cc2OC)[C@H]1O	-0.154
CC(C)[Si]1(C(C)C)OCc2cc(C3CC3)nc(-c3ccccc3)c21	-0.294
CCCNC(=O)[C@@]1(Sc2ccc(C)cc2)CC(=O)N(Cc2ccccc2Cl)[C@@H]1c1ccc(CO)cc1	0.866

* * *

Listed here are molecules together with their documented composite z-score.
- assay_method_text: small-molecule microarray binders of probe aShh, primary screen, biochemical, biotinylated probe, 635/667 nm fluorescence (AID 1114);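 note: probe is biotin-labelled aShh protein from a stem cell growth factor screen; measures binding of labelled protein to compounds printed on the slide; score merges feature fluorescence at 667 nm with signal-to-noise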
- condition_notes: higher = more signal

item_smiles	composite z-score
COc1ccc(-c2ccccc2[C@@H]2N[C@H](C(=O)O)CC[C@H]2C)cc1	0.138
COCCOC(=O)N1C(=O)[C@@]2(c3cc(C#CCNC(N)=O)ccc31)[C@H](c1ccccc1OCCO)N1[C@H](c3ccccc3)[C@H](c3ccccc3)OC(=O)[C@H]1[C@@H]2C(=O)NC[C@H](O)c1ccccc1	0.0639
Cc1ccc(S[C@]2(C(=O)NC(C)C)CC(=O)N(Cc3cc(C(F)(F)F)cc(C(F)(F)F)c3)[C@@H]2c2ccc(CO)cc2I)cc1	0.0815
CC[C@@H]1C=C(C(=O)O)[C@H](c2ccccc2)N1S(=O)(=O)c1ccc([N+](=O)[O-])cc1	-0.138
CO[C@@H]1COC(=O)[C@@H]2CCCN2C(=O)CC=C[C@@H](C)[C@H](OC)COC(=O)[C@@H]2CCCN2C(=O)CC=C[C@H]1C	-0.2
COCCOC(=O)N1C(=O)[C@@]2(c3cc(C#CC4(O)CCCCCC4)ccc31)[C@H](C(=O)N1CCCCCCC1)[C@H]1C(=O)O[C@H](c3ccccc3)[C@H](c3ccccc3)N1[C@@H]2c1ccc(O)cc1	1.9
COC(=O)[C@@]1(Cc2ccccc2CN=[N+]=[N-])N=C(c2ccc(OCCCO)cc2)O[C@H]1c1ccccc1N=[N+]=[N-]	-0.203
COc1ccc([Si](C)(C)[C@H]2[C@H](CC(=O)N3Cc4ccccc4C[C@H]3CO)O[C@@]3(C(=O)N(Cc4cccc(N5CCOC5=O)c4)c4ccccc43)[C@@H]2C)cc1	-0.17
